Origin of the recorded values: ChEMBL document CHEMBL3399922

Entries and their measured Ki follow.
Protocol notes: Inhibition of recombinant wild-type Anopheles gambiae AChE compound incubated for up to 6 min at approximately 1 min interval
Parameters: unit not given here

- Molecule: "CC(C)Cc1cc(=O)n(C(=O)N(C)C)o1"
  Ki: 252
- Molecule: "CCCC(C)c1cc(OC(=O)N(C)C)no1 (stereo unspecified)"
  Ki: 416
- Molecule: "CC(C)CCc1cc(=O)n(C(=O)N(C)C)o1"
  Ki: 266
- Molecule: "CN(C)C(=O)n1oc(C2CC2)cc1=O"
  Ki: 50.5
- Molecule: "CN(C)C(=O)Oc1cc(CCC2CCCC2)on1"
  Ki: 0.6
- Molecule: "CN(C)C(=O)Oc1cc(CC(C)(C)C)on1"
  Ki: 0.12
